# Assay target: T1, recombinant human Claudin 18.2 protein (GenScript, Z03504) (human, UniProt P56856-2 1-261, limits assumed)
# T1 construct: Bought recombinant protein
# Protocol description: competition ELISA on coated recombinant human Claudin 18.2; competitor biotinylated IMAB362 (0.72 µg/ml)
Reported IC50 values are given for each entry in this list.

>  <Binder>
AHP31548 (antibody, V domains shown) VH: QVQLMQSGGGLVQPGGSLRLSCAASRNIGILSTMGWYRQAPGKQRELVATITRGGSTNYGEFVKGRFTISRDNAKNTVYLQMNSLKPEDTAVYYCNVDESWLGTQSYWGRGTTVTVSS VL: QSALTQPPSASGSPGQSVTISCTGTSSDIGTYNFVSWYQQHPGKAPKLIIYEVSKRPSGVPDRFSGSKSGNTASLTVSGLQAEDEADYYCKSYPRVFGTGTKLTAL

>  <IC50>
0.265 nM

$$$$
>  <Binder>
AHP32919 (antibody, V domains shown) VH: QVQLQESGGGVVQPGGSLRLSCAASQSIGLLSTMGWYRQAAGKQRELVATITRGGSTNYGEFVKGRFTISRDNAKNTVYLQMNSLKPEDTAVYYCTADESWLGTQSYWGRGTRVTVSS VL: QAGLTQPPSASGTPGQGVTISCSGSSSNIGSNSVNWYQQLPGTAPKLLMHSNNERSSGVPDRFSGSKSGSSASLAISGLQSEDAADYFCGAWDDSLNGYVFGTGTKLTVL

>  <IC50>
0.271 nM

$$$$
>  <Binder>
AHP30826 (antibody, V domains shown) VH: QVQLQQSGGGSVQAGGSLRLSCAASGTILSINAMGWYRQAPGKQRELVATITTGGNANYAHSVKGRFTISRDNAKNTVYLQMNNLKPEDTAVYYCNAEQVVVGFLQAYDVWGQGTTVTVSS VL: DVVMTQSPLSLPVTLGQAASISCRSSQSLVHGDGNTYLNWIQQRPGQSPRRLIYKVSNRDSGVPDRFSGSGSGTDFTLKISRVEAEDVGVYYCMQGTHWPSTFGPGTKVDIK

>  <IC50>
0.276 nM

$$$$
